fraction unbound by entry:
- method: Plasma protein binding assay (PPB), equilibrium dialysis
- Format: in vitro ADME
- measurement.parameters: bovine, 10% FCS in PBS, read-out: PPB 10% FCS (% fu)

Here are 3 compounds together with their reported answers.
>>> obs_value("C[C@H](Oc1nc(-c2onc3c2CCC[C@@]32CCCc3sc(N)c(C#N)c32)nc2c1n(C)c(=O)n2C1CCOCC1)[C@@H]1CCCN1C [I-10]")
0.24
>>> obs_value("CCn1c(=O)n([C@@H]2CCCOC2)c2nc(-c3onc4c3CCC[C@@]43CCCc4sc(N)c(C#N)c43)nc(OCC3(CN4CCCC4)CC3)c21 [I-35]")
0.07
>>> obs_value("C[C@H](Oc1nc(-c2onc3c2CCC[C@@]32CCCc3sc(N)c(C#N)c32)nc2c1n(C)c(=O)n2C1COC1)[C@@H]1CCCN1C [I-24]")
0.18

Prompt: # input compound: CCn1c(=O)n([C@@H]2CCCOC2)c2nc(-c3onc4c3CCC[C@@]43CCCc4sc(N)c(C#N)c43)nc(O[C@@H](C)[C@@H]3CCCN3C)c21 [I-30] ; wanted: its fraction unbound
Response: 0.08

Prompt: # input compound: Cc1cn([C@@H]2CCOC2)c2nc(-c3onc4c3CCC[C@@]43CCCc4sc(N)c(C#N)c43)nc(O[C@@H](C)[C@@H]3CCCN3C)c12 [I-41] ; wanted: its fraction unbound
Response: 0.35

These data points were gathered from patent US20250019385A1.
